Target entity: α1D-AR + β1-syntrophin (Homo sapiens)
Assay overview: [3H]-prazosin competition, HEK293 membranes
Measurement name: Ki (nM)

Chemical smiles	Observed value
COc1ccccc1N1CCN(CCCNc2c(C)c(=O)n(C)c(=O)n2C)CC1	23.4

###

Target entity: α1D-AR + α-syntrophin (Homo sapiens, UniProt P25100)
Assay overview: [3H]-PI hydrolysis, HEK293 cells, agonist
pEC50: −log10 of the molar value.

Compound	Target entity	pEC50
CNC[C@H](O)c1cccc(O)c1 [(−) Phenylephrine]	α1D-AR + α-syntrophin (Homo sapiens, UniProt P25100)	7.17
CNCC(O)c1ccc(O)c(O)c1 (racemic) [(+/−) Epinephrine]	α1D-AR + α-syntrophin (Homo sapiens, UniProt P25100)	7.80

###

Target entity: α1D-AR + α-syntrophin (Homo sapiens)
Sequence (P25100 1-572): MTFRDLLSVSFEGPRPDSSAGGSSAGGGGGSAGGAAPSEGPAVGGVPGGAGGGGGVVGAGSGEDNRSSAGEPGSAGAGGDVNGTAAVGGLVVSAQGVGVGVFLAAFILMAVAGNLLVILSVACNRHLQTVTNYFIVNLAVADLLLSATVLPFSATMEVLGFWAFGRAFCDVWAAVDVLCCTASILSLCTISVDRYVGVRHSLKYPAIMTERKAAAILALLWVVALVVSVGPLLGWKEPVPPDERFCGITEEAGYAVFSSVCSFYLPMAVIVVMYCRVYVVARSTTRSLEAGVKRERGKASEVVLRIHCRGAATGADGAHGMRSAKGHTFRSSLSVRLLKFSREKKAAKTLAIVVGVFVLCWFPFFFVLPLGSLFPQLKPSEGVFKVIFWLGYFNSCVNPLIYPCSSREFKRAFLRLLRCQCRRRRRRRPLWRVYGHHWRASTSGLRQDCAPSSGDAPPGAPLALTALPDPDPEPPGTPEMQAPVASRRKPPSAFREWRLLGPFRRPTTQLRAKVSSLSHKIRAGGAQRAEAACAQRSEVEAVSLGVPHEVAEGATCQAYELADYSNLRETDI
Sequence (Q61234 1-503 partner): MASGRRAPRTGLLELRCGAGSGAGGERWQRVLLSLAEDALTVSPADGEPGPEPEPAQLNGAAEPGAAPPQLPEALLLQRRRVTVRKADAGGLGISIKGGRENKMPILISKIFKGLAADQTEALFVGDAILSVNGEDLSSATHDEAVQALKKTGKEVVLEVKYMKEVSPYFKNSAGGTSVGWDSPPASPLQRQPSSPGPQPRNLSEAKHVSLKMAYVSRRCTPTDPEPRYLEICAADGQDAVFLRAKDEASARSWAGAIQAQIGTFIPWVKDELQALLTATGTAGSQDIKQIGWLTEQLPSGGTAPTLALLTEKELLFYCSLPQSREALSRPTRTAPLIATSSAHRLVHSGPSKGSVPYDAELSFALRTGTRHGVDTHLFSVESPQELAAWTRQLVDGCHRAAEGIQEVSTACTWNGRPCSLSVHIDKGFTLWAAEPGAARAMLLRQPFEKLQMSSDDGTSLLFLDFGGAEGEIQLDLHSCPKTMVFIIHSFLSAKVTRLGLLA
Assay overview: [3H]-prazosin competition, HEK293 membranes
pKi: −log10 of the molar value.

Chemical smiles	pKi
COc1ccccc1N1CCN(CCCNc2c(C)c(=O)n(C)c(=O)n2C)CC1	7.56

###

Target entity: α1D-AR + β2-syntrophin (Homo sapiens, UniProt P25100)
Assay overview: [3H]-PI hydrolysis, HEK293 cells, agonist

Compound	Endpoint unit	EC50
CNCC(O)c1ccc(O)c(O)c1 (racemic) [(+/−) Epinephrine]	nM	35.5
CNC[C@H](O)c1cccc(O)c1 [(−) Phenylephrine]	nM	126

###

Target entity: α1D-AR + β2-syntrophin (Homo sapiens, UniProt P25100)
Sequence (P25100 1-572): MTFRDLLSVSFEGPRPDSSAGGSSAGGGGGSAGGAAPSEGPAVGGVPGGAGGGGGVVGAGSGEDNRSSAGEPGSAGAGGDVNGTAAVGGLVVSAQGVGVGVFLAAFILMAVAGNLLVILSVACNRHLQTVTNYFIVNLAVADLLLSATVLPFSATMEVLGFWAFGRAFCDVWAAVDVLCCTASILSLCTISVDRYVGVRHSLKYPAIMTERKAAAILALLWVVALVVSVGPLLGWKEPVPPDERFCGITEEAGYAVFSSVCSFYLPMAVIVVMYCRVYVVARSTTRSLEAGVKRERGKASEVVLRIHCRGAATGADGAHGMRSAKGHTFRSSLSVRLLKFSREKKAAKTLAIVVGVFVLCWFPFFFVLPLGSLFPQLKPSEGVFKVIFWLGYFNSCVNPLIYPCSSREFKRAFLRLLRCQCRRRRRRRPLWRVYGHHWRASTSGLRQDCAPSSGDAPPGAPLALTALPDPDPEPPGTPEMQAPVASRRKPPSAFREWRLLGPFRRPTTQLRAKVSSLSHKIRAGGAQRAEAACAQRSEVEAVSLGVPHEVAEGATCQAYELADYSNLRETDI
Sequence (Q61235 1-520 partner): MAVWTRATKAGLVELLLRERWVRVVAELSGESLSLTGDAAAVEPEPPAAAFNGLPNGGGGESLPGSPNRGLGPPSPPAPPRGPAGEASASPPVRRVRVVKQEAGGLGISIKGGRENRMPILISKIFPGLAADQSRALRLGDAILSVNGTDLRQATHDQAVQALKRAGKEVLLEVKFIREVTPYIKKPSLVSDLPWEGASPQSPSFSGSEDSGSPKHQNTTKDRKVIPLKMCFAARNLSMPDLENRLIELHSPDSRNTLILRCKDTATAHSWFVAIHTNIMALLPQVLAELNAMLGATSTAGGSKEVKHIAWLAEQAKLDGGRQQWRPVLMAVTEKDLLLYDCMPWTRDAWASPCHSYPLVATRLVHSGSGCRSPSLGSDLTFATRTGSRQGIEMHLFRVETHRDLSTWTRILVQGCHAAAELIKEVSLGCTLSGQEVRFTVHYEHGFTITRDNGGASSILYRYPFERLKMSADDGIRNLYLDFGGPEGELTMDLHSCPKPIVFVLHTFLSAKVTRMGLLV
Assay overview: [3H]-prazosin competition, HEK293 membranes

Chemical smiles	Ki
COc1ccccc1N1CCN(CCCNc2c(C)c(=O)n(C)c(=O)n2C)CC1	36.3 nM
